The following compounds are shown together with reported tissue uptake at 1 h values.
- PROTOCOL_TEXT: Biodistribution in PC-3 tumor-bearing CB17-SCID mice
- Assay type: in vivo
- RUN_CONDITIONS: mouse, heart, intravenous, 100 pmol, ^68Ga-labeled; 1 h p.i.; 100 pmol; n = 4; read-out: Uptake in Heart
Starred links: 1 amine or outer side, 2 acyl side, 3 side chain; linkers in the order of their positions; H or OH if unused. Non-standard residues stand in square brackets, D forms with d. Residues, ends and D or L forms follow the SMILES beside them. *: point of attachment. DOTA = O=C(O)CN1CCN(CC(=O)O)CCN(CC(=O)*)CCN(CC(=O)O)CC1; Sta = CC(C)C[C@H](N)[C@@H](O)CC(=O)O; Bta = N[C@@H](Cc1csc2ccccc12)C(=O)O; X1 = O=C(CN1CCC(N[*:1])CC1)[*:2]; hSer = N[C@@H](CCO)C(=O)O
Please respond with the number in %ID/g and leave the unit unwritten.

Sample CC(C)C[C@H](NC(=O)C[C@H](O)[C@H](CC(C)C)NC(=O)[C@H](Cc1c[nH]cn1)NC(=O)CNC(=O)[C@@H](NC(=O)[C@H](C)NC(=O)[C@H](Cc1c[nH]c2ccccc12)NC(=O)[C@H](CCO)NC(=O)[C@@H](Cc1ccccc1)NC(=O)CN1CCC(NC(=O)CN2CCN(CC(=O)O)CCN(CC(=O)O)CCN(CC(=O)O)CC2)CC1)C(C)C)C(N)=O [[^68Ga]Ga-[Hse^7]RM2, metal not drawn] ({DOTA}-[X1][dF][hSer]WAVGH[Sta]L-NH2) ; tissue uptake at 1 h observed: 1.29

In plain terms, CC(C)C[C@H](NC(=O)C[C@H](O)[C@H](CC(C)C)NC(=O)[C@H](Cc1c[nH]cn1)NC(=O)CNC(=O)[C@@H](NC(=O)[C@H](C)NC(=O)[C@H](Cc1csc2ccccc12)NC(=O)[C@H](CCC(N)=O)NC(=O)[C@@H](Cc1ccccc1)NC(=O)CN1CCC(NC(=O)CN2CCN(CC(=O)O)CCN(CC(=O)O)CCN(CC(=O)O)CC2)CC1)C(C)C)C(N)=O [[^68Ga]Ga-[Bta^8]RM2, metal not drawn] ({DOTA}-[X1][dF]Q[Bta]AVGH[Sta]L-NH2) has a documented tissue uptake at 1 h of 0.4

----------
- PROTOCOL_TEXT: Biodistribution in PC-3 tumor-bearing CB17-SCID mice
- Format: in vivo
- RUN_CONDITIONS: mouse, kidney, intravenous, 100 pmol, ^177Lu-labeled; 24 h p.i.; 100 pmol; n = 4; read-out: Uptake in Kidney
Starred links: 1 amine or outer side, 2 acyl side, 3 side chain; linkers in the order of their positions; H or OH if unused. Non-standard residues stand in square brackets, D forms with d. Residues, ends and D or L forms follow the SMILES beside them. *: point of attachment. DOTA = O=C(O)CN1CCN(CC(=O)O)CCN(CC(=O)*)CCN(CC(=O)O)CC1; Sta = CC(C)C[C@H](N)[C@@H](O)CC(=O)O; Bta = N[C@@H](Cc1csc2ccccc12)C(=O)O; X1 = O=C(CN1CCC(N[*:1])CC1)[*:2]; hSer = N[C@@H](CCO)C(=O)O
OBSERVATION_TYPE: tissue uptake at 24 h (%ID/g)
State just the number; it will be interpreted in %ID/g.

>>> numeric_result("CC(C)C[C@H](NC(=O)C[C@H](O)[C@H](CC(C)C)NC(=O)[C@H](Cc1c[nH]cn1)NC(=O)CNC(=O)[C@@H](NC(=O)[C@H](C)NC(=O)[C@H](Cc1csc2ccccc12)NC(=O)[C@H](CCC(N)=O)NC(=O)[C@@H](Cc1ccccc1)NC(=O)CN1CCC(NC(=O)CN2CCN(CC(=O)O)CCN(CC(=O)O)CCN(CC(=O)O)CC2)CC1)C(C)C)C(N)=O [[^177Lu]Lu-[Bta^8]RM2, metal not drawn] ({DOTA}-[X1][dF]Q[Bta]AVGH[Sta]L-NH2)")
2.07

Value of measured tissue uptake at 24 h for the entry CC(C)C[C@H](NC(=O)C[C@H](O)[C@H](CC(C)C)NC(=O)[C@H](Cc1c[nH]cn1)NC(=O)CNC(=O)[C@@H](NC(=O)[C@H](C)NC(=O)[C@H](Cc1c[nH]c2ccccc12)NC(=O)[C@H](CCO)NC(=O)[C@@H](Cc1ccccc1)NC(=O)CN1CCC(NC(=O)CN2CCN(CC(=O)O)CCN(CC(=O)O)CCN(CC(=O)O)CC2)CC1)C(C)C)C(N)=O [[^177Lu]Lu-[Hse^7]RM2, metal not drawn] ({DOTA}-[X1][dF][hSer]WAVGH[Sta]L-NH2) : 1.94

----------
- PROTOCOL_TEXT: Biodistribution in PC-3 tumor-bearing CB17-SCID mice
- Format: in vivo
- RUN_CONDITIONS: CB17-SCID, mouse, tumor and kidney, iv, 100 pmol, total radioactivity; ^68Ga-labeled; 1 h p.i.; n = 4; read-out: Tumor-to-Kidney ratio
Starred links: 1 amine or outer side, 2 acyl side, 3 side chain; linkers in the order of their positions; H or OH if unused. Non-standard residues stand in square brackets, D forms with d. Residues, ends and D or L forms follow the SMILES beside them. *: point of attachment. DOTA = O=C(O)CN1CCN(CC(=O)O)CCN(CC(=O)*)CCN(CC(=O)O)CC1; Sta = CC(C)C[C@H](N)[C@@H](O)CC(=O)O; Bta = N[C@@H](Cc1csc2ccccc12)C(=O)O; X1 = O=C(CN1CCC(N[*:1])CC1)[*:2]; hSer = N[C@@H](CCO)C(=O)O
Item-by-item account of tissue to tissue ratio at 1 h

>>> result("CC(C)C[C@H](NC(=O)C[C@H](O)[C@H](CC(C)C)NC(=O)[C@H](Cc1c[nH]cn1)NC(=O)CNC(=O)[C@@H](NC(=O)[C@H](C)NC(=O)[C@H](Cc1c[nH]c2ccccc12)NC(=O)[C@H](CCO)NC(=O)[C@@H](Cc1ccccc1)NC(=O)CN1CCC(NC(=O)CN2CCN(CC(=O)O)CCN(CC(=O)O)CCN(CC(=O)O)CC2)CC1)C(C)C)C(N)=O [[^68Ga]Ga-[Hse^7]RM2, metal not drawn] ({DOTA}-[X1][dF][hSer]WAVGH[Sta]L-NH2)")
2.2

// recorded tissue to tissue ratio at 1 h for CC(C)C[C@H](NC(=O)C[C@H](O)[C@H](CC(C)C)NC(=O)[C@H](Cc1c[nH]cn1)NC(=O)CNC(=O)[C@@H](NC(=O)[C@H](C)NC(=O)[C@H](Cc1csc2ccccc12)NC(=O)[C@H](CCC(N)=O)NC(=O)[C@@H](Cc1ccccc1)NC(=O)CN1CCC(NC(=O)CN2CCN(CC(=O)O)CCN(CC(=O)O)CCN(CC(=O)O)CC2)CC1)C(C)C)C(N)=O [[^68Ga]Ga-[Bta^8]RM2, metal not drawn] ({DOTA}-[X1][dF]Q[Bta]AVGH[Sta]L-NH2) : 3.3

----------
- TARGET_SYSTEM: GRPR (Homo sapiens, UniProt P30550)
- Construct: host or cells: PC-3 cells
- Sequence (P30550 whole entry): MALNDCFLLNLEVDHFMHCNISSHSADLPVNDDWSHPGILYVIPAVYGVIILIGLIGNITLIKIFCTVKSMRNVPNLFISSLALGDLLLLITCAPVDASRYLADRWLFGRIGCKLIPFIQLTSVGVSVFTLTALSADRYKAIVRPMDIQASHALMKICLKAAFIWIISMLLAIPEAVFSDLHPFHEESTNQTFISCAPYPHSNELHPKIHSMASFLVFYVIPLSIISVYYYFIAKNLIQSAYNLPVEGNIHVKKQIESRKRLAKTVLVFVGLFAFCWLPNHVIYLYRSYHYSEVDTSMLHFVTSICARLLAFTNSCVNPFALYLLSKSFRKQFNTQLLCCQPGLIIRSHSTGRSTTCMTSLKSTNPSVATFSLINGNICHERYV
- PROTOCOL_TEXT: GRPR affinity (IC50), competitive binding on PC-3 cells vs [3-[^125I]I-D-Tyr^6]MJ9
- RUN_CONDITIONS: Ga-complexed, 2 h, rt, n = 3, read-out: IC50 (nM), Ga-labeled
Starred links: 1 amine or outer side, 2 acyl side, 3 side chain; linkers in the order of their positions; H or OH if unused. Non-standard residues stand in square brackets, D forms with d. Residues, ends and D or L forms follow the SMILES beside them. *: point of attachment. DOTA = O=C(O)CN1CCN(CC(=O)O)CCN(CC(=O)*)CCN(CC(=O)O)CC1; NODAGA = O=C(O)CN1CCN(CC(=O)O)CCN(C(CCC(=O)*)C(=O)O)CC1; NOTA = O=C(O)CN1CCN(CC(=O)O)CCN(CC(=O)*)CC1; Sta = CC(C)C[C@H](N)[C@@H](O)CC(=O)O; Bta = N[C@@H](Cc1csc2ccccc12)C(=O)O; X1 = O=C(CN1CCC(N[*:1])CC1)[*:2]; hSer = N[C@@H](CCO)C(=O)O
Lab note: compare IC50 with 2 nM, writing Yes if less and No if equal or more.

Some entries whose results are on file:
>>> assigned_class("CC(C)C[C@H](NC(=O)C[C@H](O)[C@H](CC(C)C)NC(=O)[C@H](Cc1c[nH]cn1)NC(=O)CNC(=O)[C@@H](NC(=O)[C@H](C)NC(=O)[C@H](Cc1c[nH]c2ccccc12)NC(=O)[C@H](CCO)NC(=O)[C@@H](Cc1ccccc1)NC(=O)CN1CCC(NC(=O)CN2CCN(CC(=O)O)CCN(CC(=O)O)CC2)CC1)C(C)C)C(N)=O [NOTA-[des-DOTA, Hse^7]RM2] ({NOTA}-[X1][dF][hSer]WAVGH[Sta]L-NH2)")
"No"
>>> assigned_class("CC(C)C[C@H](NC(=O)C[C@H](O)[C@H](CC(C)C)NC(=O)[C@H](Cc1c[nH]cn1)NC(=O)CNC(=O)[C@@H](NC(=O)[C@H](C)NC(=O)[C@H](Cc1c[nH]c2ccccc12)NC(=O)[C@H](CCO)NC(=O)[C@@H](Cc1ccccc1)NC(=O)CN1CCC(NC(=O)CCC(C(=O)O)N2CCN(CC(=O)O)CCN(CC(=O)O)CC2)CC1)C(C)C)C(N)=O (stereo partly drawn) [NODAGA-[des-DOTA, Hse^7]RM2] ({NODAGA}-[X1][dF][hSer]WAVGH[Sta]L-NH2)")
"No"
>>> assigned_class("CC(C)C[C@H](NC(=O)C[C@H](O)[C@H](CC(C)C)NC(=O)[C@H](Cc1c[nH]cn1)NC(=O)CNC(=O)[C@@H](NC(=O)[C@H](C)NC(=O)[C@H](Cc1csc2ccccc12)NC(=O)[C@H](CCC(N)=O)NC(=O)[C@@H](Cc1ccccc1)NC(=O)CN1CCC(NC(=O)CN2CCN(CC(=O)O)CCN(CC(=O)O)CCN(CC(=O)O)CC2)CC1)C(C)C)C(N)=O [[Bta^8]RM2] ({DOTA}-[X1][dF]Q[Bta]AVGH[Sta]L-NH2)")
"No"
>>> assigned_class("CC(C)C[C@H](NC(=O)C[C@H](O)[C@H](CC(C)C)NC(=O)[C@H](Cc1c[nH]cn1)NC(=O)CNC(=O)[C@@H](NC(=O)[C@H](C)NC(=O)[C@H](Cc1c[nH]c2ccccc12)NC(=O)[C@H](CCO)NC(=O)[C@@H](Cc1ccccc1)NC(=O)CN1CCC(NC(=O)CN2CCN(CC(=O)O)CCN(CC(=O)O)CCN(CC(=O)O)CC2)CC1)C(C)C)C(N)=O [[Hse^7]RM2] ({DOTA}-[X1][dF][hSer]WAVGH[Sta]L-NH2)")
"No"

Proceed to the following item.
Query: Strictly below 2 nM in IC50? CC(C)C[C@H](NC(=O)C[C@H](O)[C@H](CC(C)C)NC(=O)[C@H](Cc1c[nH]cn1)NC(=O)CNC(=O)[C@@H](NC(=O)[C@H](C)NC(=O)[C@H](Cc1csc2ccccc12)NC(=O)[C@H](CCC(N)=O)NC(=O)[C@@H](Cc1ccccc1)NC(=O)CN1CCC(NC(=O)CN2CCN(CC(=O)O)CCN(CC(=O)O)CC2)CC1)C(C)C)C(N)=O [NOTA-[des-DOTA, Bta^8]RM2] ({NOTA}-[X1][dF]Q[Bta]AVGH[Sta]L-NH2)
Result: Yes
